# target-desc: T1, human Flag-tagged soluble TWEAK (amino acids 106-249) (human, UniProt O43508 106-249)
# T1 construct: The sentence gives amino acids 106-249 without naming the entry; also called Human TWEAK; not shown: Flag tag
# T1 sequence: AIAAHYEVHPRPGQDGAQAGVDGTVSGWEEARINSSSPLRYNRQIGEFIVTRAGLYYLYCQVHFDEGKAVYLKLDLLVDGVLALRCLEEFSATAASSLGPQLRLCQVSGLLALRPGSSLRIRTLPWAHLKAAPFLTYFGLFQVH
# test-protocol: receptor interaction ELISA: Flag-TWEAK 2.5 ng/ml preincubated with antibody, then on coated human Fn14:Fc (competitor m21)
Here the recorded IC50 is given for each entry.

# binder, IC50
measured = [
    ("<TWEAK> 304 (rabbit) (antibody, V domains shown, Rabbit parent antibody) VH: QSLEESGGDLVKPGASLTLTCKASGFSFSSTYYMCWVRQAPGKGLEWIGCIYVGSSGAPYYASWAKGRFTISKTSSTTVALQMTSLTPADTATYVCTRSVHFGDLWGPGTLVTVSS VL: DVVMTQTPSPVSAAVGGTVTIKCQASQSIGNDLSWYQQKPGQRPKLLIYSVSTLASGVPSRFKGSGSGTEYSLTISDVQCADAATYYCQCIDYGNNYVGNTFGGGTEVVVK", "2.8 ng/mL"),
    ("<TWEAK> 304chi (antibody, human IgG1, kappa, V domains shown, Chimer: rabbit variable domains with human kappa and human IgG1 constant regions) VH: QSLEESGGDLVKPGASLTLTCKASGFSFSSTYYMCWVRQAPGKGLEWIGCIYVGSSGAPYYASWAKGRFTISKTSSTTVALQMTSLTPADTATYVCTRSVHFGDLWGPGTLVTVSS VL: DVVMTQTPSPVSAAVGGTVTIKCQASQSIGNDLSWYQQKPGQRPKLLIYSVSTLASGVPSRFKGSGSGTEYSLTISDVQCADAATYYCQCIDYGNNYVGNTFGGGTEVVVKR", "2.6 ng/mL"),
    ("<TWEAK> 305chi (antibody, human IgG1, kappa, V domains shown, Chimer: rabbit variable domains with human kappa and human IgG1 constant regions) VH: QEQLVESGGGLVQPGGSLTLSCKASGFDFSTYYMSWVRQAPGKGLEWIGTVYVRQGTTYYASWLNGRFTISSDNAQNTVDLKMNSLTAADTATYFCAKGGYNYDDAFVIWGPGTLVTVSF VL: AIEMTQTPFSVSAAVGGTVTINCQASQNIYSNLAWYQQKPGQPPKLLMYTASYLASGVPSRFKGSGSRTEYTLTISGVQCADAATYYCQTAYYNSRPDTVAFGGGTEVVVKR", "2.6 ng/mL"),
    ("<TWEAK> 301chi (antibody, human IgG1, kappa, V domains shown) VH: QSLEESGGGLVKPGASLTLTCTASGFTFNANYWICWVRQAPGKGLEWIACIYGGGNSGAYYASWATGRFTISRTSSTTVTLQMTSLTAADTATYFCARGPISRDLWGPGTLVTVSL VL: DVVMTQTPASVSEPVGGTVTIKCQASQSIYSSLAWYQQKPGQPPKLLIYDAFDLASGVSSRFTGSGSGTQFTLTISDLECADAATYYCQSTDYGNSWDGNPFGGGTEVVVTR", "2.8 ng/mL"),
    ("<TWEAK> 301 (rabbit) (antibody, V domains shown, Rabbit parent antibody; purified antibody or hybridoma supernatant was used) VH: QSLEESGGGLVKPGASLTLTCTASGFTFNANYWICWVRQAPGKGLEWIACIYGGGNSGAYYASWATGRFTISRTSSTTVTLQMTSLTAADTATYFCARGPISRDLWGPGTLVTVSL VL: DVVMTQTPASVSEPVGGTVTIKCQASQSIYSSLAWYQQKPGQPPKLLIYDAFDLASGVSSRFTGSGSGTQFTLTISDLECADAATYYCQSTDYGNSWDGNPFGGGTEVVVT", "3.4 ng/mL"),
    ("<TWEAK> 305 (rabbit) (antibody, V domains shown, Rabbit parent antibody) VH: QEQLVESGGGLVQPGGSLTLSCKASGFDFSTYYMSWVRQAPGKGLEWIGTVYVRQGTTYYASWLNGRFTISSDNAQNTVDLKMNSLTAADTATYFCAKGGYNYDDAFVIWGPGTLVTVSF VL: AIEMTQTPFSVSAAVGGTVTINCQASQNIYSNLAWYQQKPGQPPKLLMYTASYLASGVPSRFKGSGSRTEYTLTISGVQCADAATYYCQTAYYNSRPDTVAFGGGTEVVVK", "2.5 ng/mL"),
]
